The measurements presented in this section are drawn from patent US11377442B2.

Measured On: NR2F6 LBD (Homo sapiens)
Construct: expressed in transfected cells
Method Summary: NR2F6 LBD transient transfection
Format: cell-based
Condition Context: 0.5 uM; LBD
Procedure: FIGS. 27A and 27B show NR2F6 and LBD transient transfection, respectively, for Compound D28. Higher concentrations were excluded due to lower signal (tox effect). FIGS. 27C and 27D show NR2F6 and LBD transient transfection at different concentrations for different compounds. 9 compounds were tested on LBD transfected cells (40, 10, 2 and 0.5 μM, 4 replicates). FIGS. 27E and 27F show toxicity of Compound D28. […]
Measured Property: Firefly LBD, cmpd/DMSO (mean)
Please give only the number in your answer, with no unit.

# get_value(readout='Firefly LBD, cmpd/DMSO (mean)', item= CC(C)CN[C@H]1CS(=O)(=O)C[C@@H]1S(=O)(=O)c1ccc(Cl)cc1 [Compound D120] )
1.1

# get_value(readout='Firefly LBD, cmpd/DMSO (mean)', item= O=S1(=O)C[C@H](NC2CCCCC2)[C@@H](S(=O)(=O)c2ccccc2)C1 [Compound D111] )
1.1

# get_value(readout='Firefly LBD, cmpd/DMSO (mean)', item= CCC(C)N[C@H]1CS(=O)(=O)C[C@@H]1S(=O)(=O)c1ccc(C)cc1 (stereo partly drawn) [Compound D113] )
1.1

====

Measured On: NR2F6 (Homo sapiens)
Construct: expressed in transfected cells; also transient transfection
Method Summary: NR2F6 agonist screening, Firefly signal cmpd/DMSO
Format: cell-based
Condition Context: first set screening, 10 μM, repeat 1
Each record here notes measured Firefly, cmpd/DMSO repeat 1.
Please give only the number in your answer, with no unit.

COCCNC(=O)c1ccc2c(c1)N=C(C)c1cc(C)ccc1S2 [Compound C8]
2.1

# get_value(readout='Firefly, cmpd/DMSO repeat 1', item= CNC(=O)c1ccc2c(c1)N=C(C)c1cc(C)ccc1S2 [Compound C9] )
2.7

# get_value(readout='Firefly, cmpd/DMSO repeat 1', item= O=C(Nc1cccc(O)c1)c1cc(-c2ccc(Cl)c(Cl)c2)on1 [Compound C5] )
2.2

# get_value(readout='Firefly, cmpd/DMSO repeat 1', item= Nc1nonc1-c1noc(-c2cccc(COc3ccc(Cl)cc3Cl)c2)n1 [Compound 23] )
3.0

# get_value(readout='Firefly, cmpd/DMSO repeat 1', item= Cc1ccn2cc(-c3ccc(F)cc3)cc2c1 [Compound 17] )
2.2

====

Measured On: NR2F6 (Homo sapiens, UniProt P10588)
Construct: expressed in transfected cells; also transient transfection
Method Summary: NR2F6 agonist screening, Firefly signal cmpd/DMSO
Format: cell-based
Condition Context: Table 31
Measured Property: Activity, cmpd/DMSO

Answered cases to consult:
O=S1(=O)C[C@H](N2CCCC2)[C@@H](S(=O)(=O)c2ccc(Cl)cc2)C1
6.6
O=S1(=O)C[C@H](N2CCCC2)[C@@H](S(=O)(=O)c2cccs2)C1
7.1
C[C@@H]1C[C@H](C)CN([C@H]2CS(=O)(=O)C[C@@H]2S(=O)(=O)c2cccs2)C1
6.2
CCCCN(C)[C@H]1CS(=O)(=O)C[C@@H]1S(=O)(=O)c1ccc(Cl)cc1
6.6
CC1CCN([C@H]2CS(=O)(=O)C[C@@H]2S(=O)(=O)c2cccs2)CC1
5.2

# get_value(readout='Activity, cmpd/DMSO', item= `O=S1(=O)C[C@H](N2CCCCC2)[C@@H](S(=O)(=O)c2cccs2)C1` )
5.7

# get_value(readout='Activity, cmpd/DMSO', item= `CC1CCN([C@H]2CS(=O)(=O)C[C@@H]2S(=O)(=O)c2ccc(Cl)cc2)CC1` )
7.3

# get_value(readout='Activity, cmpd/DMSO', item= `O=S1(=O)C[C@H](N2CCCCC2)[C@@H](S(=O)(=O)c2ccc(Cl)cc2)C1` )
6.1

====

Measured On: NR2F6 (Homo sapiens)
Construct: expressed in transfected cells; also transient transfection
Sequence (P10588 1-404): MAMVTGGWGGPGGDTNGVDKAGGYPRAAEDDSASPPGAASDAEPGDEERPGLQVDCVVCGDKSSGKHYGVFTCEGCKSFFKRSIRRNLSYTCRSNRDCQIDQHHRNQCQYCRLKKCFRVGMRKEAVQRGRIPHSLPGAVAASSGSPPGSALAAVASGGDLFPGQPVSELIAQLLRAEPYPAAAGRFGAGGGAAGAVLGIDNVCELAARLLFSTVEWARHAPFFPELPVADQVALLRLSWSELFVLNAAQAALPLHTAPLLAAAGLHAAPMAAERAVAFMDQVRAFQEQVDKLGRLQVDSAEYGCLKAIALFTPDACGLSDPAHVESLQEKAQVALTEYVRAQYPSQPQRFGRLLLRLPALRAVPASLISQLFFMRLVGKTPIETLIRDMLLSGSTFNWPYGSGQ
Method Summary: NR2F6 agonist screening, Firefly signal cmpd/DMSO
Format: cell-based
Condition Context: Table 12; repeat 2
Each record here notes measured Firefly, cmpd/DMSO repeat 2.
Please give only the number in your answer, with no unit.

O=c1oc2ccccc2cc1S(=O)(=O)c1ccc(Br)cc1
15.3
Cc1ccc(S(=O)(=O)c2cc3cc(C(=O)Nc4cccc(C)c4C)ccc3oc2=O)cc1
31.9
O=c1oc2ccc(F)cc2cc1S(=O)(=O)c1ccc(Cl)cc1
19.1

# get_value(readout='Firefly, cmpd/DMSO repeat 2', item= `N#Cc1cccc(S(=O)(=O)c2cc3cc(Cl)ccc3oc2=O)c1` )
29.4

# get_value(readout='Firefly, cmpd/DMSO repeat 2', item= `Cc1ccc2oc(=O)c(S(=O)(=O)c3cccc(C#N)c3)cc2c1` )
15.2

# get_value(readout='Firefly, cmpd/DMSO repeat 2', item= `Cc1cc(S(=O)(=O)c2cc3ccccc3oc2=O)ccc1F` )
7.2

# get_value(readout='Firefly, cmpd/DMSO repeat 2', item= `COc1ccc(NC(=O)c2ccc3oc(=O)c(S(=O)(=O)c4ccccc4)cc3c2)cc1` )
8.2

# get_value(readout='Firefly, cmpd/DMSO repeat 2', item= `COc1ccc(S(=O)(=O)c2cc3cc(F)cc(F)c3oc2=O)cc1` )
15.6

# get_value(readout='Firefly, cmpd/DMSO repeat 2', item= `CCOc1cccc2cc(S(=O)(=O)c3ccc(OC)c(OC)c3)c(=O)oc12` )
4.3

====

Measured On: ERα (Homo sapiens, UniProt P03372)
Construct: expressed in transfected cells
Sequence (P03372 whole entry, species assumed): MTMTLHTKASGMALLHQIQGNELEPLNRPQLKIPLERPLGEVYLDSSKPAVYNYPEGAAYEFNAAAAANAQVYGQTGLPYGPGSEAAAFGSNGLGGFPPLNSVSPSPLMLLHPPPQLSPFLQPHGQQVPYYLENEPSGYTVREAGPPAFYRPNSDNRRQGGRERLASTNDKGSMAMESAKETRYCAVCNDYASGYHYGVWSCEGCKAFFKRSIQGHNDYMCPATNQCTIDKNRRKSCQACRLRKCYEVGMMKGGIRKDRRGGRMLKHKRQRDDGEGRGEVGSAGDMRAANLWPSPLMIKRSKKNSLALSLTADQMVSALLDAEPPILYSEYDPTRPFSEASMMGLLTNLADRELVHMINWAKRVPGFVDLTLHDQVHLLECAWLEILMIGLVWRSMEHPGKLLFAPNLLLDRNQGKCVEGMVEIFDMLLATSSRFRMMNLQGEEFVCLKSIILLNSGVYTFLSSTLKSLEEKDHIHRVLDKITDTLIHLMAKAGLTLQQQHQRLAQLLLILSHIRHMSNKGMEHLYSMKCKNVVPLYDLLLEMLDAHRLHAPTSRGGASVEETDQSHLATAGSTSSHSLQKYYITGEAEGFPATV
Method Summary: Counterscreening, Firefly signal with ERα transient transfection (Firefly_ERa)
Format: cell-based
Condition Context: 10 uM
Each record here notes measured Firefly ERalpha transient, cmpd/DMSO (mean).
Please give only the number in your answer, with no unit.

Answered cases to consult:
N#Cc1c(C(F)(F)F)nc2ccc(Cl)cc2c1N1CCOCC1
0.9
O=c1c(Cl)c(Cl)cnn1-c1ccccc1
1.6
CNc1c(C#N)c(C(F)(F)F)nc2ccc(Oc3ccccc3)cc12
0.3
Cc1cc(C)nc(Nc2nc(-c3ccccc3)c(CC(=O)O)s2)n1
1.7
CCCCCCNc1nc(OC)nc(N2CCn3c(cccc3=O)C2)n1
1.5

The record that follows has no Firefly ERalpha transient, cmpd/DMSO (mean) shown yet.
Form entry - test system: ERα (Homo sapiens, UniProt P03372); read-out: Firefly ERalpha transient, cmpd/DMSO (mean); molecule: O=c1cccc2n1CCN(c1nc(NCC3CCCO3)nc(N3CCCC3)n1)C2 (stereo not drawn)
1.0

====

Method Summary: PK in mice plasma
Format: in vivo
Condition Context: mouse; Table 41; IV plasma, 1.12 mg/kg
Measured Property: Tmax (min)
Write the value in min as a bare number.

# get_value(readout='Tmax', item= COCCN[C@H]1CS(=O)(=O)C[C@@H]1S(=O)(=O)c1ccc(Cl)cc1 [Compound D136] )
4.98

====

Measured On: NR2F6 (Homo sapiens, UniProt P10588)
Construct: expressed in transfected cells; also transient transfection
Method Summary: NR2F6 agonist screening, Firefly signal cmpd/DMSO
Type: cell-based
Condition Context: F4; 1% FBS; 2 uM
Measured Property: Firefly, F4, 1% FBS, cmpd/DMSO (mean)
Please give only the number in your answer, with no unit.

CC(C)N[C@H]1CS(=O)(=O)C[C@@H]1S(=O)(=O)c1ccc(Cl)cc1 [Compound D118]
1.4
CCCCN[C@H]1CS(=O)(=O)C[C@@H]1S(=O)(=O)c1ccc(Cl)cc1 [Compound D119]
1.8
CCC(C)N[C@H]1CS(=O)(=O)C[C@@H]1S(=O)(=O)c1ccc(Cl)cc1 (stereo partly drawn) [Compound D121]
1.2
O=S1(=O)C[C@H](NC2CCCCC2)[C@@H](S(=O)(=O)c2ccc(Cl)cc2)C1 [Compound D124]
1.9
O=S1(=O)C[C@H](N2CCCCC2)[C@@H](S(=O)(=O)c2cccs2)C1 [Compound D105]
1.7

# get_value(readout='Firefly, F4, 1% FBS, cmpd/DMSO (mean)', item= CC1CCN([C@H]2CS(=O)(=O)C[C@@H]2S(=O)(=O)c2cccs2)CC1 [Compound D106] )
1.9

# get_value(readout='Firefly, F4, 1% FBS, cmpd/DMSO (mean)', item= O=S1(=O)C[C@H](N2CCCCC2)[C@@H](S(=O)(=O)c2ccc(Cl)cc2)C1 [Compound D123] )
2.1

# get_value(readout='Firefly, F4, 1% FBS, cmpd/DMSO (mean)', item= O=S1(=O)C[C@H](N2CCCC2)[C@@H](S(=O)(=O)c2ccc(Cl)cc2)C1 [Compound D122] )
3.2

# get_value(readout='Firefly, F4, 1% FBS, cmpd/DMSO (mean)', item= COCCN[C@H]1CS(=O)(=O)C[C@@H]1S(=O)(=O)c1ccc(Cl)cc1 [Compound D136] )
1.0
